Source: patent US20260137697A1

# subject of test: CRAF (Homo sapiens, UniProt P04049)
# Construct: fused on or other part: GST tag (N-terminal according to the vendor's product)
# Sequence (P04049 whole entry Y340E/Y341E, form open, the tested form may be a part): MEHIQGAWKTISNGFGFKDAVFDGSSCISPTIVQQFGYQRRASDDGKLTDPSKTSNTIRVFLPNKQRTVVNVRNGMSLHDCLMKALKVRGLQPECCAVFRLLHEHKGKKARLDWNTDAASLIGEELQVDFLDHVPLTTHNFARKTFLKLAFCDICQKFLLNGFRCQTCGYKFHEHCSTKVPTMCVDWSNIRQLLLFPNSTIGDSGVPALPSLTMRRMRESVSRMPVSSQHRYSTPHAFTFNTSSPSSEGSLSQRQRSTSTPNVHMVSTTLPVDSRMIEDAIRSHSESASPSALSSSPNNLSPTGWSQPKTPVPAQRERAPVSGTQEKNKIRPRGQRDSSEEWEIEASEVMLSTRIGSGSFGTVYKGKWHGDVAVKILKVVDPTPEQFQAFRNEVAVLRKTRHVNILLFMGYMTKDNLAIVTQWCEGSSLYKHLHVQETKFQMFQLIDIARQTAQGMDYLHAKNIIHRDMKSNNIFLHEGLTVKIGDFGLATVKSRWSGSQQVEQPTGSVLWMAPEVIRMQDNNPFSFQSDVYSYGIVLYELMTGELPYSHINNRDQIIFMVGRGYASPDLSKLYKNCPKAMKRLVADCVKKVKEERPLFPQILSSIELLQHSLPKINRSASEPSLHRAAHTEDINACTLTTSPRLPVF
# test: CRAF kinase activity assay (ADP-Glo)
# Assay type: biochemical
# assay conditions: Table 3; 10 μM ATP, kinase-dead MEK1 substrate
pIC50: −log10 of the molar value.
endpoint name: pIC50

# annotated cases, reported pIC50 shown
COCCC(=O)c1cn(-c2nc3c(Nc4c(F)ccc(NS(=O)(=O)c5cccc(Cl)c5Cl)c4F)ncnc3s2)c2ccccc12 : 7.30 to 8.00
O=S(=O)(Nc1ccc(F)c(Nc2ncnc3sc(-n4cnc5c(N6CCN(CCO)CC6)cccc54)nc23)c1F)c1cccc(Cl)c1Cl : > 8.00
O=C(c1cn(-c2nc3c(Nc4c(F)ccc(NS(=O)(=O)c5cccc(Cl)c5Cl)c4F)ncnc3s2)c2ccc(Cl)cc12)N1C2CCC1COC2 : 7.30 to 8.00
Cc1c(F)cccc1S(=O)(=O)Nc1ccc(F)c(Nc2ncnc3sc(-n4cc(C(=O)N5C6CCC5COC6)c5ccccc54)nc23)c1F : > 8.00
O=S(=O)(Nc1ccc(F)c(Nc2ncnc3sc(-n4cnc5c(CCO)cccc54)nc23)c1F)c1cccc(Cl)c1Cl : > 8.00

Form field: reported pIC50 of O=C(c1cn(-c2nc3c(Nc4c(F)ccc(NS(=O)(=O)c5cccc(Cl)c5Cl)c4F)ncnc3s2)c2ccccc12)N1C2CCC1CN(CCO)C2
> 8.00

For N#Cc1cccc2c1ncn2-c1nc2c(Nc3c(F)ccc(NS(=O)(=O)c4cccc(Cl)c4Cl)c3F)ncnc2s1 then?
> 8.00

Next compound up: CC(C)C(=O)c1cn(-c2nc3c(Nc4c(F)ccc(NS(=O)(=O)c5cccc(Cl)c5Cl)c4F)ncnc3s2)c2ccccc12
< 7.30

----------
# Tested on: pERK, HCT116 cells
# test: Phospho-ERK inhibition, AlphaLISA p-ERK 1/2, HCT-116
# Format: cell-based, human
# assay conditions: Homo sapiens, HCT-116; Table 3; HCT116 cells (KRAS G13D), 1 h treatment
endpoint name: IC50

# example entries with known answers
O=S(=O)(Nc1ccc(F)c(Nc2ncnc3sc(-n4cnc5c(C(F)(F)F)cccc54)nc23)c1F)c1cccc(Cl)c1Cl : 1 to 10 µM
O=C(c1cccs1)c1cn(-c2nc3c(Nc4c(F)ccc(NS(=O)(=O)c5cccc(Cl)c5Cl)c4F)ncnc3s2)c2ccccc12 : 1 to 10 µM
Cc1c(F)cccc1S(=O)(=O)Nc1ccc(F)c(Nc2ncnc3sc(-n4cc(C(=O)N(C)CCc5ccccn5)c5ccccc54)nc23)c1F : < 0.5 µM
CCN(CCOC)S(=O)(=O)c1cn(-c2nc3c(Nc4c(F)ccc(NS(=O)(=O)c5cccc(Cl)c5Cl)c4F)ncnc3s2)c2ccccc12 : 0.5 to 1 µM

Dear colleague, I am looking for the recorded IC50 of the following compound: O=S(=O)(Nc1ccc(F)c(Nc2ncnc3sc(-n4cnc5ccccc54)nc23)c1F)c1cccc(Cl)c1Cl
0.5 to 1 µM

Now this one: O=S(=O)(Nc1ccc(F)c(Nc2ncnc3sc(-n4cnc5c(N6CCNCC6)cccc54)nc23)c1F)c1cccc(Cl)c1Cl
< 0.5 µM

Also need Cc1c(F)cccc1S(=O)(=O)Nc1ccc(F)c(Nc2ncnc3sc(-c4cncs4)nc23)c1F , thanks.
1 to 10 µM

----------
# subject of test: BRAF (Homo sapiens, UniProt P15056)
# Construct: GST; purchased Millipore Sigma B4062-10UG
# Sequence (P15056 whole entry): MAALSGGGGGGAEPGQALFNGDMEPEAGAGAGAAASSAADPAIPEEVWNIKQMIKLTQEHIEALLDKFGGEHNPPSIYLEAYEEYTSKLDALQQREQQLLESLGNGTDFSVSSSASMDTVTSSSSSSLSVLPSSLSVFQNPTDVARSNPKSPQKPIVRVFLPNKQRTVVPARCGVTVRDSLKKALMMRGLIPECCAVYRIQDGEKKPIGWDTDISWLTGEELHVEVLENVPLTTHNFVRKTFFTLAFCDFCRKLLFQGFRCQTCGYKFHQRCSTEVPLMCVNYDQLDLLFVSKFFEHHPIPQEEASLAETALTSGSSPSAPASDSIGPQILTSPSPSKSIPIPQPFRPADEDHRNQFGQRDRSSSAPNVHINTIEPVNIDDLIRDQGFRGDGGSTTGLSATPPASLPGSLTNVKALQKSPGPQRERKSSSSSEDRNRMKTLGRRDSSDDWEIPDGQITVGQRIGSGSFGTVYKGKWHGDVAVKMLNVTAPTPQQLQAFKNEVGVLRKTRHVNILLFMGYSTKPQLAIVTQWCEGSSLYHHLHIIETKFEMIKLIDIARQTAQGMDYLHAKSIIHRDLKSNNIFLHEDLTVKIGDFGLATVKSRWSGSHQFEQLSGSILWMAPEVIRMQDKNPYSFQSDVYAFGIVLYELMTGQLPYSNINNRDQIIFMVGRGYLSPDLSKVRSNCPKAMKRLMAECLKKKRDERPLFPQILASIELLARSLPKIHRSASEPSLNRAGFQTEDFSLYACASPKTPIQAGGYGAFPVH
# test: BRAF kinase activity assay (ADP-Glo)
# Type: biochemical
# assay conditions: Table 3; 10 μM ATP, kinase-dead MEK1 substrate
Parameter IC50: see the listing below.

CC(C)(C#N)c1cccc2c1ncn2-c1nc2c(Nc3c(F)ccc(NS(=O)(=O)c4cccc(Cl)c4Cl)c3F)ncnc2s1 : 1 to 10 nM
Cc1cc2ncn(-c3nc4c(Nc5c(F)ccc(NS(=O)(=O)c6cccc(Cl)c6Cl)c5F)ncnc4s3)c2cc1C : 1 to 10 nM
COc1ccc(S(=O)(=O)Nc2ccc(F)c(Nc3ncnc4sc(-n5cnc6c(C(C)(C)C#N)cccc65)nc34)c2F)c(C)c1Cl : > 10 nM

Endpoint output: IC50 of O=S(=O)(Nc1ccc(F)c(Nc2ncnc3sc(-n4cnc5cc(F)c(F)cc54)nc23)c1F)c1cccc(Cl)c1Cl . Value?
1 to 10 nM

// next record O=S(=O)(Nc1ccc(F)c(Nc2ncnc3sc(-n4cnc5c(N6CCOC(CO)C6)cccc54)nc23)c1F)c1cccc(Cl)c1Cl (stereo not shown)
< 1 nM

Repeat for the following compound: CC(=O)c1cn(-c2nc3c(Nc4c(F)ccc(NS(=O)(=O)c5cccc(Cl)c5Cl)c4F)ncnc3s2)c2ccccc12
1 to 10 nM

Do the same for O=S(=O)(Nc1ccc(F)c(Nc2ncnc3sc(-n4cnc5c(F)c(F)ccc54)nc23)c1F)c1cccc(Cl)c1Cl please
1 to 10 nM

----------
In this section, each of the compounds is paired with its reported pIC50.
# subject of test: BRAF (Homo sapiens)
# Construct: GST; purchased Millipore Sigma B4062-10UG
# test: BRAF kinase activity assay (ADP-Glo)
# Type: biochemical
# assay conditions: Table 3; 10 μM ATP, kinase-dead MEK1 substrate
pIC50: −log10 of the molar value.

Before answering, review these 5 worked examples.
C[C@]1(CO)CCCN1C(=O)c1cn(-c2nc3c(Nc4c(F)ccc(NS(=O)(=O)c5cccc(Cl)c5Cl)c4F)ncnc3s2)c2ccccc12 [Example 78] : 8.00 to 9.00
O=S(=O)(Nc1ccc(F)c(Nc2ncnc3sc(-n4cnc5c(N6C7CCC6CC(O)C7)cccc54)nc23)c1F)c1cccc(Cl)c1Cl (stereo not shown) [Example 129] : 8.00 to 9.00
CCC(=O)c1cn(-c2nc3c(Nc4c(F)ccc(NS(=O)(=O)c5cccc(Cl)c5Cl)c4F)ncnc3s2)c2ccccc12 [Example 91] : < 8.00
O=S(=O)(Nc1ccc(F)c(Nc2ncnc3sc(-n4ccc5ccccc54)nc23)c1F)c1cccc(Cl)c1Cl [Example 114] : < 8.00
CS(=O)(=O)C1CCN(c2cccc3c2ncn3-c2nc3c(Nc4c(F)ccc(NS(=O)(=O)c5cccc(Cl)c5Cl)c4F)ncnc3s2)CC1 [Example 153] : 8.00 to 9.00

Any idea what pIC50 was measured for Cc1c(F)cccc1S(=O)(=O)Nc1ccc(F)c(Nc2ncnc3sc(-n4nc(C(=O)NCc5cccnc5)c5ccccc54)nc23)c1F [Example 24] ?
< 8.00

Same for COc1ccc(S(=O)(=O)Nc2ccc(F)c(Nc3ncnc4sc(-n5cnc6ccccc65)nc34)c2F)c(C)c1F [Example 16]
8.00 to 9.00

Would you mind doing O=S(=O)(Nc1ccc(F)c(Nc2ncnc3sc(-n4cnc5c(N6CC7CC6CO7)cccc54)nc23)c1F)c1cccc(Cl)c1Cl (stereo not shown) [Example 127] as well?
8.00 to 9.00

Repeat with Cc1c(F)cccc1S(=O)(=O)Nc1ccc(F)c(Nc2ncnc3sc(-c4cncs4)nc23)c1F [Example 154]
< 8.00

----------
# subject of test: CRAF (Homo sapiens, UniProt P04049)
# Construct: fused on or other part: GST tag (N-terminal according to the vendor's product)
# test: CRAF kinase activity assay (ADP-Glo)
# Type: biochemical
# assay conditions: Table 3; 10 μM ATP, kinase-dead MEK1 substrate
Items are presented alongside their recorded IC50.

COC[C@@H]1CCCN1c1cccc2c1ncn2-c1nc2c(Nc3c(F)ccc(NS(=O)(=O)c4cccc(Cl)c4Cl)c3F)ncnc2s1 : > 50 nM
O=S(=O)(Nc1ccc(F)c(Nc2ncnc3sc(-n4cnc5c(C6(CO)CC6)cccc54)nc23)c1F)c1cccc(Cl)c1Cl : < 10 nM
O=C(c1cn(-c2nc3c(Nc4c(F)ccc(NS(=O)(=O)c5cccc(Cl)c5Cl)c4F)ncnc3s2)c2ccccc12)N1CC(O)C1 : < 10 nM

Fill blank: measured IC50 of the molecule O=S1(=O)CCN(c2cccc3c2ncn3-c2nc3c(Nc4c(F)ccc(NS(=O)(=O)c5cccc(Cl)c5Cl)c4F)ncnc3s2)CC1 is ____.
< 10 nM

Input O=C1CCCC12CCN(c1cccc3c1ncn3-c1nc3c(Nc4c(F)ccc(NS(=O)(=O)c5cccc(Cl)c5Cl)c4F)ncnc3s1)CC2
10 to 50 nM

// query: O=S(=O)(Nc1ccc(F)c(Nc2ncnc3sc(-n4cnc5cc(F)c(F)cc54)nc23)c1F)c1cccc(Cl)c1Cl
< 10 nM

----------
# subject of test: CRAF (Homo sapiens, UniProt P04049)
# Construct: fused on or other part: GST tag (N-terminal according to the vendor's product)
# test: CRAF kinase activity assay (ADP-Glo)
# Assay type: biochemical
# assay conditions: Table 3; 10 μM ATP, kinase-dead MEK1 substrate
pIC50: −log10 of the molar value.
endpoint name: pIC50

Observe how each entry below is paired with its result.
COCCN(C)C(=O)c1nn(-c2nc3c(Nc4c(F)ccc(NS(=O)(=O)c5cccc(F)c5C)c4F)ncnc3s2)c2ccccc12 : < 7.30
CS(=O)(=O)N1CCN(c2cccc3c2ncn3-c2nc3c(Nc4c(F)ccc(NS(=O)(=O)c5cccc(Cl)c5Cl)c4F)ncnc3s2)CC1 : 7.30 to 8.00
Cc1c(F)cccc1S(=O)(=O)Nc1ccc(F)c(Nc2ncnc3sc(-n4cc(C(=O)N(C)CCc5ccccn5)c5ccccc54)nc23)c1F : 7.30 to 8.00
O=S(=O)(Nc1ccc(F)c(Nc2ncnc3sc(-n4cnc5c(F)cccc54)nc23)c1F)c1cccc(Cl)c1Cl : > 8.00
CCOc1cccc2c1ccn2-c1nc2c(Nc3c(F)ccc(NS(=O)(=O)c4cccc(Cl)c4Cl)c3F)ncnc2s1 : 7.30 to 8.00

Consider the additional molecule presented here.
Find the measured pIC50: item CC(C)(O)[C@@H]1CCCN1C(=O)c1cn(-c2nc3c(Nc4c(F)ccc(NS(=O)(=O)c5cccc(Cl)c5Cl)c4F)ncnc3s2)c2ccccc12 , target or system CRAF (Homo sapiens, UniProt P04049).
7.30 to 8.00
